Tested on: OVCAR-5
method: NCI tumour cell line growth inhibition, 48 h
Active and inactive are the calls of the source. Rule as the data show it: active = GI50 up to about 1.1 µM and inactive = higher.
One label from this list, please: active, inactive

COc1ccc(C#CC(=O)O)c(OC)c1 | inactive

In the following, a different molecule is considered.
Hi, sorry to bother you, what did the test record for Nc1ncnc2c1sc1nc3ccccc3n12 ?
inactive

* * *

System: RPMI-8226
method: NCI tumour cell line growth inhibition, 48 h
Calls of active or inactive are those of the source. No stated cut-off is given here; in the data, active = GI50 up to about 1.1 µM and inactive = higher.
The categories you may choose from are t (active), f (inactive)

O=[N+]([O-])c1ccc(N/N=C(\c2ccccc2)c2ccccn2)nc1 | t

Assay result, entry Cc1cc2ccccc2c[n+]1CC(=O)CC([O-])(C(F)(F)F)C(F)(F)F — outcome?
f

Just curious, what result did COc1ccc2nc3cc(Cl)ccc3c(NCCCN(C)CCCNc3ccc4ncn5c6ccccc6c(=O)c3c45)c2c1 get here?
t

Please state the recorded outcome for this compound: Cc1cc2nc(N3C(=O)/C(=C/Cc4ccco4)N=C3c3ccccc3)sc2cc1C
f

Returns: the outcome recorded for N#Cc1ccc(/C=N/NC(=O)CSCC(=O)N/N=C/c2ccc(C#N)cc2)cc1 in this assay.
f

Please share the test call associated with Cc1c(O)nc(/C=C/C(=O)O)nc1C(=O)O .
f

Hello, I am checking results. What call was entered for CCCCN(CC)CC(C(C)=O)c1c(O)c2ccccc2oc1=O (centres undefined) ?
f

Hi team, can someone confirm the assay call for CN(C)c1ccc(C2ON=C(c3ccccc3)N2C23CC4CC(CC(C4)C2)C3)cc1 (centres undefined) ?
f

GET /call?item= Nc1ncnc2c1ncn2C1CCC(CP(=O)(O)O)C1 (centres undefined) returns the recorded outcome of this test.
f
